# experimentDescription: Stability of JAK3 Covalent Inhibitors in Human Whole Blood
# Format: in vitro ADME
# conditionParameters: both sexes, 1 μM test compound, 37° C., 180 min incubation, read-out: Human blood stability t1/2
Response field label: string, one of t (half-life at 1 μM strictly below 4 h) or f.

# compound, categoryLabel
measured = [
    ("C=CC(=O)N1CCN(c2cnc3[nH]cc(C(=O)NCC(C)C)c3n2)C[C@@H]1CC(C)C", "f"),
    ("C=CC(=O)N(C)C1CN(c2cnc3[nH]cc(C(=O)N[C@H](C)COC)c3n2)C1", "t"),
    ("C=CC(=O)N1C[C@@H](Nc2cnc3[nH]cc(C(=O)N[C@@H](C)COC)c3n2)CC[C@H]1C (single isomer, unassigned) [Example 67]", "f"),
    ("C=CC(=O)N1CC[C@@H](Nc2cnc3[nH]cc(C(=O)NCC)c3n2)[C@H](C)C1 (racemic) [Example 43]", "t"),
    ("C=CC(=O)N1CC[C@@H](Nc2cnc3c(n2)c(C(=O)NCC)cn3C)C[C@H]1C (single isomer, unassigned)", "f"),
    ("C=CC(=O)N1C[C@H](COCCC#N)C[C@H](Nc2ncnc3[nH]ccc23)C1", "t"),
    ("C=CC(=O)N1C[C@H](CN2CC[C@H](C#N)C2)C[C@H](Nc2ncnc3[nH]ccc23)C1", "t"),
]

* * *

# targetOrTestSystem: UniProt:P52333
# experimentDescription: JAK Caliper Enzyme Assay at 4 μM ATP
# Format: biochemical

# compound, IC50 (nM)
measured = [
    ("C=CC(=O)N1CCN(c2cnc3[nH]cc(C(=O)NCC4CCCC4)c3n2)CC1", 0.2),
    ("C=CC(=O)N1CC[C@@H](Nc2cnc3[nH]cc(C(=O)NCCC(F)(F)F)c3n2)C[C@H]1C (single isomer, unassigned)", 3.58),
    ("C=CC(=O)N1CCC(Oc2cnc3[nH]cc(C(=O)NCC4(O)CCC(C)C4)c3n2)CC1 (racemic)", 3.62),
]

* * *

# targetOrTestSystem: JAK3 enzyme (Homo sapiens, UniProt P52333)
# Sequence (P52333 whole entry, species assumed): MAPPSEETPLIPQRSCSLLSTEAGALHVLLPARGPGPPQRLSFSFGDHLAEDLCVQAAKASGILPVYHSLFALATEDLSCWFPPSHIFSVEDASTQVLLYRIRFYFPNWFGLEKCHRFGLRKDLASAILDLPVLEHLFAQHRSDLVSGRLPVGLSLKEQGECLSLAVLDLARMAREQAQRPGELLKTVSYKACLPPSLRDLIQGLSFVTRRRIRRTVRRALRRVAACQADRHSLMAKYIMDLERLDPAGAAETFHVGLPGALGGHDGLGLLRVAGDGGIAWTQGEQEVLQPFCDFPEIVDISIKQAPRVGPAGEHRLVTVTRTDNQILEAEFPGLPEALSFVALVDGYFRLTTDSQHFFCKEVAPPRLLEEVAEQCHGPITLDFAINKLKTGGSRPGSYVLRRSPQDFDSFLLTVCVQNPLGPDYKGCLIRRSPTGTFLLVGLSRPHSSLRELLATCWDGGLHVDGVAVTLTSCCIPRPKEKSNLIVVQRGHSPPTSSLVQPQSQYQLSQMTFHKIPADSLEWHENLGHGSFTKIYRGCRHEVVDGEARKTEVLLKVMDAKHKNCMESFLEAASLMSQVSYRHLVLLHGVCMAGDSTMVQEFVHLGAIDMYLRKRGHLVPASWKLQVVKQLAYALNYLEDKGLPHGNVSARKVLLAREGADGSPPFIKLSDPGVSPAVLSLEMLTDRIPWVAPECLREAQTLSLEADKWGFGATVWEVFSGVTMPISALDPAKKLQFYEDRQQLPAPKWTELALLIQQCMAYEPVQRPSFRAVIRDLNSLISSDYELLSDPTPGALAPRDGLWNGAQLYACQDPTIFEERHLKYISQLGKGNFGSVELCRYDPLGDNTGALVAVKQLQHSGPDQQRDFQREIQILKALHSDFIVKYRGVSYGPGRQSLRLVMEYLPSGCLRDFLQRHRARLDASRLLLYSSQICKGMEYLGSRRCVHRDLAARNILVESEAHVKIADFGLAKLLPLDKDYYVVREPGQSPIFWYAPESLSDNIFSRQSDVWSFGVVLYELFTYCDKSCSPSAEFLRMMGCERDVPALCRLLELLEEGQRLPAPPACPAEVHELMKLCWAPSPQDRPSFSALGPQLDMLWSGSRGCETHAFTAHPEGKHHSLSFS
# experimentDescription: JAK Caliper Enzyme Assay at 1 mM ATP
# Type: biochemical
property: IC50 (nM)

# compound, resultValue
data = [
    ("C=CC(=O)N1C[C@H](Nc2cnc3[nH]cc(C(=O)NCC)c3n2)C[C@H]1COCC", 798),
    ("C=CC(=O)N1CCC(Oc2cnc3[nH]cc(-c4ncn(C)n4)c3n2)CC1", 3530),
    ("C=CC(=O)N1CCC(Oc2cnc3[nH]cc(C(=O)NCCOC)c3n2)CC1", 74),
    ("C=CC(=O)N1CC[C@H](Nc2cnc3[nH]cc(C(=O)N[C@@H](C)COC)c3n2)[C@H](OC)C1 (single isomer, unassigned)", 831),
    ("C=CC(=O)N1CCC(Nc2cnc3[nH]cc(C(=O)NCc4cc(C5CCC5)nn4C)c3n2)CC1", 43),
    ("C=CC(=O)N1CC[C@H](Nc2cnc3[nH]cc(C(=O)NCC(F)(F)F)c3n2)C1 (single isomer, unassigned)", 2540),
    ("C=CC(=O)N1CCC(Oc2cnc3[nH]cc(C(=O)NCc4cccc(F)c4)c3c2)CC1", 3470),
]

Where do these numbers come from? They come from patent US10703756B2.
